Entries annotated with measured IC50
# tested on: T1, human OT7T175 (metastin receptor) (human, UniProt Q969F8 1-398)
# T1 construct: expressed on CHO cells; also called hOT7T175; hOT7T175-expressed CHO cells
# T1 sequence (Q969F8 whole entry L364H): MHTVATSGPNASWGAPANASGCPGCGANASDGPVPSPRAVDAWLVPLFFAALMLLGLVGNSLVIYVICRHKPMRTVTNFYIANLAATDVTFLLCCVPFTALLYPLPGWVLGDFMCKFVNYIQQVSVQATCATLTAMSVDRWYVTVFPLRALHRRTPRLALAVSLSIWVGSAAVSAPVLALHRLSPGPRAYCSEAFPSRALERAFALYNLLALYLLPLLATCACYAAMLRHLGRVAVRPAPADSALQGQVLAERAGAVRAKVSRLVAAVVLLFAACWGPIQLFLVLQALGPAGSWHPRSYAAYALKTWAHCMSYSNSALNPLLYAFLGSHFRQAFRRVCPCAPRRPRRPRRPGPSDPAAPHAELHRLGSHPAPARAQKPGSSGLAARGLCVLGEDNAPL
# experimental protocol: competition with Cy-5 metastin (40-54) on hOT7T175-CHO cells, FMAT
Non-standard residues stand in square brackets, D forms with d. No end group written: not given here. Arg(Me) = CNC(=N)NCCC[C@H](N)C(=O)O; azaGly = NNC(=O)O

# binder, IC50
data = [
    ("[dY]SNSFGL[Arg(Me)]F-NH2 (N-terminus assumed; SMILES CNC(=N)NCCC[C@H](NC(=O)[C@H](CC(C)C)NC(=O)CNC(=O)[C@H](Cc1ccccc1)NC(=O)[C@H](CO)NC(=O)[C@H](CC(N)=O)NC(=O)[C@H](CO)NC(=O)[C@H](N)Cc1ccc(O)cc1)C(=O)N[C@@H](Cc1ccccc1)C(N)=O, also called Compound No. 226) [des(1)-[D-Tyr2,Ser3,Arg(Me)9]MS10]", "100 nM"),
    ("[dY]INSFGL[Arg(Me)]F-NH2 (N-terminus assumed; SMILES CC[C@H](C)[C@H](NC(=O)[C@H](N)Cc1ccc(O)cc1)C(=O)N[C@@H](CC(N)=O)C(=O)N[C@@H](CO)C(=O)N[C@@H](Cc1ccccc1)C(=O)NCC(=O)N[C@@H](CC(C)C)C(=O)N[C@@H](CCCNC(=N)NC)C(=O)N[C@@H](Cc1ccccc1)C(N)=O, also called Compound No. 228) [des(1)-[D-Tyr2,Ile3,Arg(Me)9]MS10]", "40 nM"),
]

We next turn to a different binder, shown below.
Prompt: For [dY]WNSF[azaGly]L[Arg(Me)]F-NH2 (N-terminus assumed; SMILES CNC(=N)NCCC[C@H](NC(=O)[C@H](CC(C)C)NC(=O)NNC(=O)[C@H](Cc1ccccc1)NC(=O)[C@H](CO)NC(=O)[C@H](CC(N)=O)NC(=O)[C@H](Cc1c[nH]c2ccccc12)NC(=O)[C@H](N)Cc1ccc(O)cc1)C(=O)N[C@@H](Cc1ccccc1)C(N)=O, also called Compound No. 222) [des(1)-[D-Tyr2,AzaGly7,Arg(Me)9]MS10] , what is its reported IC50?
Completion: 33 nM
